The origin of these recorded values is patent US20240116985A1.

- Test Target: full-length beta-Catenin (Uniprot ID P35222) (Homo sapiens, UniProt P35222)
- Construct: 10 nM full-length beta-Catenin (Uniprot ID P35222)
- Sequence (P35222 1-781): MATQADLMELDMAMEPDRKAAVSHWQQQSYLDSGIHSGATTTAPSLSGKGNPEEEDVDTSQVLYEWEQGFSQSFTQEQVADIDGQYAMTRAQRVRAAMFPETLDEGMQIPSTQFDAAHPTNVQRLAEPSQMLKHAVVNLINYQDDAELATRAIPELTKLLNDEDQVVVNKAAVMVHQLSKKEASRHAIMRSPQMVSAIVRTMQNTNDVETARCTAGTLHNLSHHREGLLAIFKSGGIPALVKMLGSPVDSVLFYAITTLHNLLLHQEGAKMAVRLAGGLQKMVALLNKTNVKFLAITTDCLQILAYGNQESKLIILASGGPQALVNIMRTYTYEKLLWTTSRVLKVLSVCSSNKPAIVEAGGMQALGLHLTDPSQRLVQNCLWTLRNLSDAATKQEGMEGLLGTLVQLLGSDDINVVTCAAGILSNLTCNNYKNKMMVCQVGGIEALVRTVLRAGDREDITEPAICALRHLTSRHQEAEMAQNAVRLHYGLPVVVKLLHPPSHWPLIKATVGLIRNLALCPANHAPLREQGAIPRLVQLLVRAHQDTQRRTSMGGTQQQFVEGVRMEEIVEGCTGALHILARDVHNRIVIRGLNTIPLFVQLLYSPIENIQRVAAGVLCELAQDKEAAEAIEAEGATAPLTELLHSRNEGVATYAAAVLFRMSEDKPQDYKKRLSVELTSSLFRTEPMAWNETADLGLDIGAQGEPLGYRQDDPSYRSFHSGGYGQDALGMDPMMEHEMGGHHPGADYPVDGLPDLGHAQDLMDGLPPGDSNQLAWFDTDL
- Protocol Notes: Fluorescence polarization IC50 (beta-catenin / 5FAM-TCF4 10-53 competition)
- Assay type: binding
- Test Settings: fluorescence polarization; read-out: beta-Catenin FP IC50
Readout: pIC50
Reminder that pIC50 is minus the log10 of a molar concentration.

{"Molecule": "CC(=O)N1CCC[C@]12CC=CCCCC1(CCCC=CCCCOC(=O)N3CC[C@@](C(=O)N[C@@H](Cc4cccc(Br)c4)C(=O)N[C@@H](Cc4ccccc4)C(=O)N[C@@H](CCC(N)=O)C(N)=O)(C3)NC(=O)[C@H](CC(C)C)NC(=O)[C@H](Cc3ccccc3)NC(=O)[C@H](C)NC(=O)[C@H](C)NC(=O)[C@H](Cc3cccc(C(=O)O)c3)NC(=O)[C@H](CC(=O)O)NC1=O)NC(=O)[C@H](CC(C)(C)C)NC(=O)[C@H](CC(=O)O)NC2=O (some centres unmarked)", "pIC50": 5.83}

As a next step, examine the molecule that follows.
// pIC50 lookup, key: CC(=O)N1CCC[C@]12CC=CCCCC1(CCCC=CCCCOC(=O)N3CC[C@@](C(=O)N[C@@H](Cc4ccsc4)C(=O)N[C@@H](Cc4csc5ccccc45)C(=O)N[C@@H](Cc4ccccc4)C(N)=O)(C3)NC(=O)[C@H](CC(C)C)NC(=O)[C@H](Cc3ccccc3)NC(=O)[C@H](C)NC(=O)[C@H](CCCCNC(C)C)NC(=O)[C@H](Cc3cccc(C(=O)O)c3)NC(=O)[C@H](CC(=O)O)NC1=O)NC(=O)[C@H](CC(C)(C)C)NC(=O)[C@H](CC(=O)O)NC2=O (some centres unmarked) 7.54

###

Entries and their Solubility
- Protocol Notes: Solubility in PBS
- Assay type: physicochemical
- Test Settings: Solubility (uM)
// return numeric value only (unit: µM, not printed)

{"Compound": "CC(=O)N1CCC[C@]12CC=CCCCC1(CCCC=CCCCOC(=O)N3CC[C@@](C(=O)N[C@@H](Cc4ccccc4Cl)C(=O)N[C@@H](Cc4csc5ccccc45)C(=O)N[C@@H](CCC(N)=O)C(N)=O)(C3)NC(=O)[C@H](CO)NC(=O)[C@H](Cc3ccccc3)NC(=O)[C@H](C)NC(=O)[C@H](C)NC(=O)[C@H](CC(=O)O)NC(=O)[C@H](CC(=O)O)NC1=O)NC(=O)[C@H](CC(C)(C)C)NC(=O)[C@H](CC(=O)O)NC2=O (stereo partly drawn)", "Readout": "Solubility", "Measurement Units": "µM", "Numeric Value": 48}
{"Compound": "CC(=O)N1CCC[C@]12CC=CCCCC1(CCCC=CCCCCCC[C@@](C)(C(=O)N[C@@H](Cc3ccccc3)C(=O)N[C@@H](Cc3csc4ccccc34)C(=O)N[C@@H](Cc3c[nH]cn3)C(=O)NC(C)(C)C(N)=O)NC(=O)[C@H](CC(N)=O)NC(=O)[C@H](Cc3ccccc3)NC(=O)[C@H](C)NC(=O)[C@H](C)NC(=O)[C@H](CCC(=O)O)NC(=O)[C@H](CC(=O)O)NC1=O)NC(=O)[C@H](CC(C)C)NC(=O)[C@H](CC(=O)O)NC2=O (stereo partly drawn)", "Readout": "Solubility", "Measurement Units": "µM", "Numeric Value": 29}
{"Compound": "CC(=O)N1CCC[C@]12CC=CCCCC1(CCCC=CCCCOC(=O)N3CC[C@@](C(=O)N[C@@H](Cc4ccsc4)C(=O)N[C@@H](Cc4c[nH]c5ccc(Cl)cc45)C(=O)N[C@@H](Cc4c[nH]cn4)C(N)=O)(C3)NC(=O)[C@H](CC(N)=O)NC(=O)[C@H](Cc3ccccc3)NC(=O)[C@H](C)NC(=O)[C@H](C)NC(=O)[C@H](CC(=O)O)NC(=O)[C@H](CC(=O)O)NC1=O)NC(=O)[C@H](CC(C)(C)C)NC(=O)[C@H](CC(=O)O)NC2=O (stereo partly drawn)", "Readout": "Solubility", "Measurement Units": "µM", "Numeric Value": 48}
{"Compound": "CC(=O)N1CCC[C@]12CC=CCCCC1(CCCC=CCCCOC(=O)N3CC[C@@](C(=O)N[C@@H](Cc4ccsc4)C(=O)N[C@@H](Cc4csc5ccccc45)C(=O)N[C@@H](CCC(N)=O)C(N)=O)(C3)NC(=O)[C@H](CCO)NC(=O)[C@H](Cc3ccccc3)NC(=O)[C@H](C)NC(=O)[C@H](C)NC(=O)[C@H](CC(=O)O)NC(=O)[C@H](CC(=O)O)NC1=O)NC(=O)[C@H](CC(C)(C)C)NC(=O)[C@H](CC(=O)O)NC2=O (stereo partly drawn)", "Readout": "Solubility", "Measurement Units": "µM", "Numeric Value": 40}
{"Compound": "CC(=O)N1CCC[C@]12CC=CCCCC1(CCCC=CCCCCCC[C@@](C)(C(=O)N[C@@H](Cc3ccccc3)C(=O)N[C@@H](Cc3csc4ccccc34)C(=O)N[C@@H](CCC(N)=O)C(N)=O)NC(=O)[C@H](CC(N)=O)NC(=O)[C@H](Cc3ccccc3)NC(=O)[C@H](C)NC(=O)[C@H](C)NC(=O)[C@H](CCC(=O)O)NC(=O)[C@H](CC(=O)O)NC1=O)NC(=O)[C@H](C)NC(=O)[C@H](CNS(C)(=O)=O)NC2=O (stereo partly drawn)", "Readout": "Solubility", "Measurement Units": "µM", "Numeric Value": 31}

// Solubility lookup, key: CC(=O)N1CCC[C@]12CC=CCCCC1(CCCC=CCCCOC(=O)N3CC[C@@](C(=O)N[C@@H](Cc4ccccc4Cl)C(=O)N[C@@H](Cc4csc5ccccc45)C(=O)N[C@@H](CCC(N)=O)C(N)=O)(C3)NC(=O)[C@H](CC(N)=O)NC(=O)[C@H](Cc3ccccc3)NC(=O)[C@H](C)NC(=O)[C@H](C)NC(=O)[C@H](CC(=O)O)NC(=O)[C@H](CC(=O)O)NC1=O)NC(=O)[C@H](CC(C)(C)C)NC(=O)[C@H](CC(=O)O)NC2=O (stereo partly drawn) 48

What do we get for CC(=O)N1CCC[C@]12CC=CCCCC1(CCCC=CCCCCCC[C@@](C)(C(=O)N[C@@H](Cc3ccccc3)C(=O)N[C@@H](Cc3csc4ccccc34)C(=O)N[C@@H](Cc3c[nH]cn3)C(N)=O)NC(=O)[C@H]([C@@H](C)O)NC(=O)[C@H](Cc3ccccc3)NC(=O)[C@H](C)NC(=O)[C@H](C)NC(=O)[C@H](CCC(=O)O)NC(=O)[C@H](CC(=O)O)NC1=O)NC(=O)[C@H](C)NC(=O)[C@H](CC(=O)O)NC2=O (stereo partly drawn) ? 24

What do we get for CC(=O)N1CCC[C@]12CC=CCCCC1(CCCC=CCCCOC(=O)N3CC[C@@](C(=O)N[C@@H](Cc4ccsc4)C(=O)N[C@@H](Cc4csc5ccccc45)C(=O)N[C@@H](CCC(N)=O)C(=O)N[C@@H](CCCCN)C(N)=O)(C3)NC(=O)[C@H](CC(N)=O)NC(=O)[C@H](Cc3ccccc3)NC(=O)[C@H](C)NC(=O)[C@H](C)NC(=O)[C@H](CC(=O)O)NC(=O)[C@H](CC(=O)O)NC1=O)NC(=O)[C@H](CC(C)(C)C)NC(=O)[C@H](CC(=O)O)NC2=O (stereo partly drawn) ? 15

What do we get for CC[C@H](C)[C@@H]1NC(=O)[C@H](CC(=O)O)NC(=O)[C@]2(CC=CCCCC3(CCCC=CCCCCCC[C@@](C)(C(=O)N[C@@H](Cc4ccccc4)C(=O)N[C@@H](Cc4csc5ccccc45)C(=O)N[C@@H](CCC(N)=O)C(N)=O)NC(=O)[C@H](CCC(N)=O)NC(=O)[C@H](Cc4ccccc4)NC(=O)[C@H](C)NC(=O)[C@H](C)NC(=O)[C@H](CCC(=O)O)NC(=O)[C@H](CC(=O)O)NC3=O)NC1=O)CCCN2C(=O)c1ccccn1 (stereo partly drawn) ? 45
